The measurements presented in this section are drawn from PubChem BioAssay (NCATS).

System: CP247
PROTOCOL: qHTS profiling for inhibitors of Plasmodium falciparum proliferation (AID 504749); also: nearly all actives have a fitted effect of over 60% in size
REPORTED CONDITIONS: P. falciparum in erythrocytes, SYBR Green DNA, 72 h; series mostly up to 28.7 µM
Inconclusive results are not listed. Calls of active or inactive are those of the source. Calls follow the shape of the dose curve; as a rule, active = well fitted inhibition curve with a large enough effect; inconclusive = small, poorly fitted or top-dose-only effect; inactive = flat fitted curve, though single readings scatter.
API: response.call in YES = active, NO = inactive

Test call, this compound: "CO/N=C(/C(=O)N[C@@H]1C(=O)N2C(C(=O)O)=C(CSc3cnns3)CS[C@H]12)c1csc(N)n1"
NO

Please do the same for OCC(O)C(O)C(O)C(O)CO (stereo not drawn) as well.
NO

// repeat for "CO[C@H]1C[C@@H]2CC[C@@H](C)[C@@](O)(O2)C(=O)C(=O)N2CCCC[C@H]2C(=O)O[C@H]([C@H](C)C[C@@H]2CC[C@@H](O)[C@H](OC)C2)CC(=O)[C@H](C)/C=C(\C)[C@@H](O)[C@@H](OC)C(=O)[C@H](C)C[C@H](C)/C=C/C=C/C=C/1C" and report
YES

Next up: C=C1CC2C3C=C(C)C4=CC(=O)CCC4(C)C3CCC2(C)[C@@]1(OC(C)=O)C(C)=O (stereo partly drawn)
NO

Next compound up: CO/N=C(/C(=O)N[C@@H]1C(=O)N2C(C(=O)O)=C(CSC(=O)c3ccco3)CSC12)c1csc(N)n1 (stereo partly drawn)
NO

Another compound to look at: CC1CN(c2c(F)c(N)c3c(=O)c(C(=O)O)cn(C4CC4)c3c2F)CC(C)N1 (stereo not drawn)
NO

# iterate: NC(C(=O)O)c1ccc(O)cc1 (stereo not drawn)
NO

Can you handle COC(=O)C1C2CC3c4[nH]c5cc(OC)ccc5c4CCN3CC2CC(OC)C1OC (stereo not drawn) next?
NO

====

PROTOCOL: NFAT Signaling Pathway (AID 444);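 also: carbachol stimulus at about its EC50 of 1 µM final; % is scaled to controls: 0 for no effect and ±100 for the full control effect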
REPORTED CONDITIONS: Jurkat NFAT-bla M1, carbachol, beta-lactamase ratio, 5 h; at 17.2 µM (top of the series) unless noted
Records with an inconclusive call do not appear. The source made the active and inactive calls. The call rests on the fitted dose curve; in most records, active means well fitted curve in either direction with a large enough effect (not every such curve was filed as active); inconclusive means small, poorly fitted or top-dose-only effect, or another doubt; inactive means flat fitted curve, though single readings scatter.
So I've got a bunch of molecules here, and I need their activity change, negative = inhibition values.

Could you share which activity change, negative = inhibition value was measured for "Cn1nnnc1SCC(=O)NCC(=O)c1ccccc1" ?
2.64% (inactive)

Follow-up item: "Cc1cccc(-c2nc(C#N)c(NC3CCCCC3)o2)c1"
-26.6% (inactive)

One more molecule: "CCOC(=O)c1c(C)n(C)c2ccc(O)c(S(=O)(=O)c3ccccc3)c12"
2.35% (inactive)

"Cc1cc(=O)oc(C)c1C(=O)NCCN1CCOCC1" , same question.
7.8% (inactive)

Next molecule: "CCn1cc(/C=N/O)c(C)n1"
-4.37% (inactive)

Cool, now "Nc1ncn([C@@H]2O[C@@H](CO)[C@@H](O)[C@H]2O)c(=O)n1"
-6.36% [at 38 µM] (inactive)

Please give the result for "CCOC(=O)c1[nH]c2cc3c(cc2c1NC(=O)CN1CCC(C)CC1)OCO3" too.
3.83% (inactive)

Query CC1CCc2cc(F)cc3c(O)c(C(=O)NCC4CCCO4)c(=O)n1c23 (stereo unspecified) next
-19.9% (inactive)

Try the molecule CC(C)CC(C(=O)O)C(C)CC(=O)Nc1ccn(-c2ccccc2)n1 (stereo unspecified)
6.76% (inactive)

Now give it for "Cc1cc(=O)oc(C)c1C(=O)Nc1cccc2nonc12" too.
11.1% (inactive)

Input CN1C(=O)N(c2ccccc2)C(Nc2nncs2)C1(C)C (stereo unspecified)
-8.24% (inactive)

====

Tested on: CP266
PROTOCOL: qHTS profiling for inhibitors of Plasmodium falciparum proliferation (AID 504749); also: nearly all actives have a fitted effect of over 60% in size
REPORTED CONDITIONS: P. falciparum in erythrocytes, SYBR Green DNA, 72 h; series mostly up to 28.7 µM
Records with an inconclusive call do not appear. Activity calls are given as the source filed them. Calls come from the whole dose curve; as a rule, active = well fitted inhibition curve with a large enough effect; inconclusive = small, poorly fitted or top-dose-only effect; inactive = flat fitted curve, though single readings scatter.
QUANTITY KIND: outcome

// below: answered molecules
{"MOLECULE": "C/C=C1/NN(CCCN2CCN(c3cccc(Cl)c3)CC2)C(=O)N1CCOc1ccccc1", "VAL": "inactive"}
{"MOLECULE": "Nc1nc(/C(=C/CC(=O)O)C(=O)NC2C(=O)N3C(C(=O)O)=CCSC23)cs1 (configuration not stated)", "VAL": "inactive"}
{"MOLECULE": "Cc1cc2nc3c(=O)[nH]c(=O)nc-3n(CC(O)C(O)C(O)COP(=O)(O)O)c2cc1C (configuration not stated)", "VAL": "inactive"}
{"MOLECULE": "C[C@H]1OC(OC2C(O)[C@@H](O)C(OC3C(O)[C@@H](O)C(O)O[C@@H]3CO)O[C@@H]2CO)[C@H](O)C(O)C1N[C@H]1C=C(CO)[C@@H](O)[C@H](O)C1O (some centres not stated)", "VAL": "inactive"}
{"MOLECULE": "CN1[C@H]2CC(OC(=O)[C@H](CO)c3ccccc3)C[C@H]1[C@H]1O[C@H]12 (some centres not stated)", "VAL": "inactive"}
{"MOLECULE": "CCN(CC)C(=O)Nc1ccc(OC[C@H](O)CNC(C)(C)C)c(C(C)=O)c1", "VAL": "inactive"}

Please turn your attention to the following entry.
Suppose we examine the molecule CCC(=O)OC1C(N(C)C)CC(C)O[C@H]1O[C@H]1[C@H](C)[C@@H](O[C@H]2CC(OC)[C@@H](O)C(C)O2)[C@H](C)C(=O)O[C@@H](CC)[C@](C)(O)[C@@H](O)[C@H](C)C(=O)[C@@H](C)C[C@]1(C)O (some centres not stated) ; what outcome value has been reported?
inactive

====

PROTOCOL: Cell Viability - LYMP2-024 (AID 988);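 also: cells exposed to compound for 24 hr at 37 °C; nearly all actives have a fitted effect of over 60% in size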
REPORTED CONDITIONS: LYMP2-024 lymphoblastoid cell viability; series mostly up to 92.2 µM
Records with an inconclusive call do not appear. Activity calls are given as the source filed them. The call rests on the fitted dose curve; in most records, active means well fitted cell-killing curve with a large enough effect; inconclusive means small, poorly fitted or top-dose-only effect; inactive means flat fitted curve, though single readings scatter.
Thanks in advance; please answer with one of these: active, inactive

Called result for "C=C(C)c1ccccc1"
inactive

Likewise for "Cc1cc(O)c(C(C)(C)C)cc1Sc1cc(C(C)(C)C)c(O)cc1C" ?
active

Continue with "CCCCCC/C(C=O)=C\c1ccccc1"
inactive

Another compound to check: "O=C1OC2(c3cc(Br)c(O)c(Br)c3Oc3c2cc(Br)c(O)c3Br)c2c(Cl)c(Cl)c(Cl)c(Cl)c21"
inactive

Can you handle "O=C=Nc1ccc(Cc2ccc(N=C=O)cc2)cc1" next?
inactive

Do the same for "CNc1ccc(O)cc1" please
active

Likewise for "Nc1ccc2cc3ccccc3cc2c1" ?
inactive

Next up: CCC(C)Nc1ccc(NC(C)CC)cc1 (centres undefined)
active

Another compound to look at: "O=[N+]([O-])c1cc([N+](=O)[O-])c2ccc(S(=O)(=O)O)cc2c1O"
inactive

Next compound: O=C(/C=C/c1ccc(O)c(O)c1)OC1C[C@](O)(C(=O)O)C[C@@H](O)[C@H]1O (some centres undefined)
inactive

Also, "O=C(OCC(COC(=O)c1ccccc1)(COC(=O)c1ccccc1)COC(=O)c1ccccc1)c1ccccc1" please.
inactive

Try this compound too: "C=CC(=O)OCCOCCOC(=O)C=C"
active

Also "c1ccc2c(c1)-c1cccc3c1c-2cc1ccccc13" ?
inactive

Repeat for the following compound: "CN(C)c1ccc(C2(c3ccc(N(C)C)cc3)OC(=O)c3cc(N(C)C)ccc32)cc1"
inactive

====

Assignment: determine reported activity change, negative = inhibition for the given compounds.
PROTOCOL: AP1 Signaling Pathway (AID 357);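 also: ME-180 reporter cells stimulated with EGF at its EC50 level; % is scaled to controls: 0 for no effect and ±100 for the full control effect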
REPORTED CONDITIONS: ME-180 (cervical carcinoma) AP-1-bla reporter, EGF-induced, beta-lactamase ratio, 5 h; at 17.2 µM (top of the series) unless noted
Method: NCGC Assay Overview: Activator protein-1 (AP-1), a transcription factor, plays an important role in tumor genesis by regulating genes involved in cell proliferation, differentiation, apoptosis, and angiogenesis. AP-1 activity is induced by a complex network of signaling pathways that involves extracellular signals, such as growth factors. […] Library compounds were measured for their ability to modulate positively or negatively the action of EC50 EGF on reporter gene activity. […]
Inconclusive results are not listed.
A number alone suffices; assume %.

Which activity change, negative = inhibition value is on record for "CCOc1cccc(-c2nn3c(-c4ccccn4)nnc3s2)c1" ?
-15

Now give it for "CN1C(=O)c2ccc(N(C)C)cc2C1=O" too.
1.85

# repeat for COc1ccc2c(c1OC)C(=O)N1c3ccccc3SC21 (configuration not stated)
2.44

What about COC(=O)NC(Nc1sc2c(c1C(N)=O)CCCC2)(C(=O)OC)C(F)(F)F (configuration not stated) ?
2.66

Try this compound next: "Cn1c(=O)c2c(nc(Br)n2Cc2ccc3ccccc3c2)n(C)c1=O"
-1.43

What about this compound? "COc1ccc(Cn2c(=O)c3c(nc(NCCO)n3C)n(C)c2=O)cc1"
1.13

And then "c1ccc2c(c1)[nH]c1c(N3CCSCC3)ncnc12" , what is it?
-11.4

What do you get for "Nc1ccc2ncccc2c1N" ?
5.69

Now this one: CCOC(=O)c1[nH]c2cc(OC)c(OC)cc2c1NC(=O)C(C)N1CCN(Cc2ccccc2)CC1 (configuration not stated)
-21.5

Thanks! And "Cc1cn2c(-c3ccncc3)nnc2s1" ?
-4.06

Another compound to look at: "COc1ccc(C(=O)c2oc3nc(C)cc(C)c3c2N)cc1"
-14.2

Now the compound "COC(=O)COc1ccc(Oc2nc(SC)nc(N(C)C)n2)nn1"
4.25
